# TARGET_OR_TEST_SYSTEM: T1, human transferrin receptor 1 (hTfR1) (human, UniProt P02786 89-760)
# T1 construct: Recombinant human TfR1; also called huTfR1; Human TfR1
# T1 sequence (P02786 89-760 limits assumed): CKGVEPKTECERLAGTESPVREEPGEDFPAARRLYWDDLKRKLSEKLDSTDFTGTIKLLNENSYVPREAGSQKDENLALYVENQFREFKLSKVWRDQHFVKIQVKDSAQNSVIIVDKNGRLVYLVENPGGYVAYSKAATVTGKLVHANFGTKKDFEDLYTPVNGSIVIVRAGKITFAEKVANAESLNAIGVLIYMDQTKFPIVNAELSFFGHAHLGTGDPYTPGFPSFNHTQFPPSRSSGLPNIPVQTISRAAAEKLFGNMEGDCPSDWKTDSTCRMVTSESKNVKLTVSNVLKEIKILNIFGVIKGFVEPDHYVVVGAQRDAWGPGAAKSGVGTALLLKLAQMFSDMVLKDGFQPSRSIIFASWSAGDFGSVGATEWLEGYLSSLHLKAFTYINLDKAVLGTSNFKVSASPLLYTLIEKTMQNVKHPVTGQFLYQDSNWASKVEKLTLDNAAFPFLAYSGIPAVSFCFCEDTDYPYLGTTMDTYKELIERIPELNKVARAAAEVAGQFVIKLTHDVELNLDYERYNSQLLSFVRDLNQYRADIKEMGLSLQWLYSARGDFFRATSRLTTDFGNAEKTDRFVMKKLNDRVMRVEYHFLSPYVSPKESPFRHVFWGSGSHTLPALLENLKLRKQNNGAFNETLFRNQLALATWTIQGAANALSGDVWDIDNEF
# MEASUREMENT_PROTOCOL: ELISA on plate-coated human TfR1, Fab-ASO300 conjugate
Readings of Conjugate binding affinity ELISA for the listed binders
Give the number; nM is assumed, so skip it.

Field Conjugate binding affinity ELISA (entry humanized anti-TfR Fab 3M12 VH4/Vk3 conjugated to DMPK-targeting oligonucleotide ASO300 (Fab, V domains shown, Fab conjugated to oligonucleotide ASO300; chain and residue not stated, Fab-oligonucleotide conjugate; The protein chains are those of the unconjugated Fab) VH: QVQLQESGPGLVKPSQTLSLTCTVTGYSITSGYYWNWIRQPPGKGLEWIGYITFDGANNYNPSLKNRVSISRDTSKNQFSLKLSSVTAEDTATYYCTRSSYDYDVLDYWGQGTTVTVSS VL: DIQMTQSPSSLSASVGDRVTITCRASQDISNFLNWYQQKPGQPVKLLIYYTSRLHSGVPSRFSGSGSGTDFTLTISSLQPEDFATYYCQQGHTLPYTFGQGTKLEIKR ) reads 1.7

***
Conjugate binding affinity ELISA in this record for humanized anti-TfR Fab 3A4 VH3 (N54T)/Vk4 conjugated to DMPK-targeting oligonucleotide ASO300 (Fab, V domains shown, Fab conjugated to oligonucleotide ASO300; chain and residue not stated, Fab-oligonucleotide conjugate; The protein chains are those of the unconjugated Fab) VH: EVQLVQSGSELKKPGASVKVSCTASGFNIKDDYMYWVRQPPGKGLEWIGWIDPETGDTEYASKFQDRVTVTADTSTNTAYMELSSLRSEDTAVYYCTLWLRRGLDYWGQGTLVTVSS VL: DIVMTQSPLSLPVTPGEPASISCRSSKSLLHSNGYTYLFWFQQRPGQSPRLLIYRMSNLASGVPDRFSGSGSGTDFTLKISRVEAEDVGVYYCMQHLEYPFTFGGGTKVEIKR : 2.8
